Each record here notes measured RP-LC retention time.
Run Description: gradient 5% acetonitrile 3 min, to 50% in 2 min, to 85% in 15 min, held 3 min, 100 µL/min
Conditions Used: column: Zorbax Extend-C18 2.1 x 50 mm; eluents: water / acetonitrile, 0.1% formic acid
Assay Metric: RP-LC retention time (s)

> print(dat)
                                   molecule  display.unit  test.result
1  O=C(COc1ccccc1)N1CCC(OCc2nc(C3CC3)no2)CC1             s          817
2  O=C(O)c1cc(NS(=O)(=O)c2cccc(F)c2)ccc1N1CCCC(CN2CCCC2)C1 (stereo not given)             s          594
3  O=C(NCCCc1ccccc1)c1ccc2c(c1)CCN2C(=O)C1CC1             s          877
4   Cc1ccc(NC(=O)c2ccco2)c(C(=O)c2ccccc2)c1             s          995
5    COc1ccc(CCc2nc3nccc(-c4ccccn4)n3n2)cc1             s          837

* * *

Each record here notes measured RP-LC retention time.
Run Description: gradient 5% acetonitrile 3 min, to 50% in 2 min, to 85% in 15 min, held 3 min, 100 µL/min
Conditions Used: column: Zorbax Extend-C18 2.1 x 50 mm; eluents: water / acetonitrile, 0.1% formic acid
Assay Metric: RP-LC retention time (s)

> print(dat)
                                    compound          assay.metric  test.result
 1  CCn1nnc2c(N3CCOCC3)nc(-c3ccc(NC(=O)Nc4ccc(C(=O)N5CCN(C)CC5)cc4)cc3)nc21  RP-LC retention time          690
 2  Cc1sc(-c2cc(C(F)(F)F)[nH]n2)cc1S(=O)(=O)N1CCN(c2ccccc2F)CC1  RP-LC retention time         1170
 3  CNC(=O)c1sc2nc(-c3ccc(OC)cc3)c(NCCOC)n2c1C  RP-LC retention time          656
 4       CCOc1ccc(-c2csc(Nc3cc(C)ccn3)n2)cc1  RP-LC retention time          833
 5      Cc1cccc(-c2nc(N3CCOCC3)ncc2C(=O)O)c1  RP-LC retention time          787
 6  CCC(C)(C)OCC(O)CNCC(C)C (centres undefined)  RP-LC retention time          579
 7  CC(C)CN(CC(C)C)c1nc(-c2ccc(Cl)cc2)nc2ccccc12  RP-LC retention time         1130
 8  CC1=C(c2ccccc2)S(=O)(=O)N=C1N1CCCN(C(=O)NC2CCCCC2)CC1  RP-LC retention time          817
 9  C=CCN(CC=C)S(=O)(=O)c1ccc2nc(NC(=O)Cc3cccs3)sc2c1  RP-LC retention time          936
10  COC1OC2COC(c3ccccc3)OC2C(=O)C1NC(=O)c1ccccc1 (centres undefined)  RP-LC retention time         1050
11  Cc1ccc(NC(=O)N(C)CC2CCOC2)c(Cl)c1 (centres undefined)  RP-LC retention time          766
12  O=C(NCc1ccccc1Cl)c1ccc(NC(=O)C2CCC2)cc1N1CCOCC1  RP-LC retention time          873
13  Cc1nc(-c2noc(-c3ccccc3)n2)cn1CC(=O)Nc1cccc(Cl)c1  RP-LC retention time          916
14  COc1ccc(OC)c2sc(NC(=O)c3ccc(S(=O)(=O)N4CCCC4)cc3)nc12  RP-LC retention time          872

* * *

Run Description: gradient 5% acetonitrile 3 min, to 50% in 2 min, to 85% in 15 min, held 3 min, 100 µL/min
Conditions Used: column: Zorbax Extend-C18 2.1 x 50 mm; eluents: water / acetonitrile, 0.1% formic acid
Each record here notes measured RP-LC retention time.
Assay Metric: RP-LC retention time (s)

> print(dat)
                                    compound  test.result
 1  CCOc1ccc(-c2ccc(=O)n(Cc3nc(-c4ccccc4C)no3)n2)cc1         1040
 2      CCc1nnc2ccc(-c3noc(-c4ccccc4)n3)cn12          906
 3  CCn1c(N2CCN(C(=O)Nc3cc(OC)c(OC)c(OC)c3)CC2)nc2ccccc21          623
 4  CC(Oc1ccc(Cl)cc1Cl)C(=O)NCCn1ncccc1=O (stereo not given)          722
 5  CCOC(=O)c1[nH]c(C)c(CCC(=O)N2CCC(C(=O)NCCC3=CCCCC3)CC2)c1C          864
 6  Cc1cc(C)n2nc(CN(C(=O)c3cccs3)c3ccccc3)nc2n1          777
 7  Cc1cc(-c2nnc(-c3ccccc3)o2)c(C)n1CC(=O)NC(C)c1ccccc1 (stereo not given)          921
 8  COC(=O)c1c(NCc2ccc(OC)cc2)c2cccc(Cl)c2[nH]c1=O          788
 9  Cn1ncc2c(N3CCSCC3)nc(C(=O)NCCc3ccncc3)nc21          559
10  Cc1oc2ncnc(OCC(=O)Nc3ccc(S(N)(=O)=O)cc3)c2c1C          738

* * *

Run Description: gradient 5% acetonitrile 3 min, to 50% in 2 min, to 85% in 15 min, held 3 min, 100 µL/min
Conditions Used: column: Zorbax Extend-C18 2.1 x 50 mm; eluents: water / acetonitrile, 0.1% formic acid
Assay Metric: RP-LC retention time (s)

> print(dat)
                                 mol.smiles          assay.metric  display.unit  test.result
1  CN1CCC([C@@H]2CN(S(=O)(=O)c3ccc(Cl)s3)C[C@H]2C(N)=O)CC1  RP-LC retention time             s          573
2  CC(C)n1cnc2cc(CNC(=O)c3ccc(F)cc3Cl)ccc21  RP-LC retention time             s          619
3   CCCNC(=O)CCc1c(-c2ccc(Cl)cc2)nc2ccccn12  RP-LC retention time             s          625

* * *

Each record here notes measured RP-LC retention time.
Run Description: gradient 5% acetonitrile 3 min, to 50% in 2 min, to 85% in 15 min, held 3 min, 100 µL/min
Conditions Used: column: Zorbax Extend-C18 2.1 x 50 mm; eluents: water / acetonitrile, 0.1% formic acid
Assay Metric: RP-LC retention time (s)

> print(dat)
                                    molecule  test.result
 1  Cc1ccc(S(=O)(=O)N2CCN(c3cnn4c(C)nnc4c3)CC2)cc1          679
 2  CC1CN(C(=O)Cn2cc(SCC(=O)NCC3CCCO3)c3ccccc32)CC(C)O1 (stereo not drawn)          723
 3  Cc1ccsc1C(=O)N1CC(Oc2ccc(-c3nc(-c4ccccc4)no3)cc2)C1         1250
 4          CN(CC1CCOCC1)C(=O)Nc1ccc(Cl)cc1F          726
 5  O=C(NCc1cc(F)cc(F)c1)C1CC(=O)N(c2ccc3c(c2)CCN3C(=O)C2CC2)C1 (stereo not drawn)          767
 6  COc1ccc(CCN2C(=O)C(NC(=O)C3CC3)(C(F)(F)F)C3=C2CC(C)(C)CC3=O)cc1OC (stereo not drawn)          847
 7  COC(=O)c1ccc2c(=O)n(-c3ccc(C)c(F)c3)c(N3CCOCC3)nc2c1          975
 8  CC1Oc2ccc(-c3csc(NC(=O)COc4ccc(Cl)cc4)n3)cc2NC1=O (stereo not drawn)          966
 9  Cc1ccc(-c2nc(-c3cccc(-c4ccn[nH]4)c3)no2)cc1         1090
10  CCOc1ccc(S(=O)(=O)N2CCC(C(=O)NCCO)CC2)cc1C          699
11  CCN(CC)S(=O)(=O)N1CCC(C(=O)NCc2ccc(OC)cc2)CC1          795
12  O=C1CCCc2cc(S(=O)(=O)N3CCC(C(=O)NC4CCCc5ccccc54)CC3)ccc2N1 (stereo not drawn)          795
13  O=C(C1CCCN(c2ncnc3c2nc2n3CCCCC2)C1)N1CCC(Cc2ccccc2)CC1 (stereo not drawn)         1000
14  Cc1cccc(-n2ccc(=O)c(-c3nc(-c4ccc5c(c4)OCO5)no3)n2)c1          894
15  O=C(CCNc1c(-c2cccc(F)c2)nc2cnccn12)NCc1ccc(Cl)cc1          785
16  NS(=O)(=O)c1ccc(NC(=O)CSc2nnc3ccc4ccccc4n23)cc1          652
17  CCOC(=O)c1c(S(=O)(=O)N2CCC(C(=O)Nc3ccc(OCC)cc3)CC2)c(C)n(C)c1C          853
18  Cc1ccc(S(=O)(=O)NC2CCN(c3ncnc4c3CCC4)C2)cc1 (stereo not drawn)          628
19  O=C(NCC1CCCO1)C1CCN(S(=O)(=O)c2ccc(-c3noc(C4CC4)n3)cc2)CC1 (stereo not drawn)          789
20  Cn1nc(COc2ccccc2)c2c1CCN(C(=O)Nc1ccccc1Cl)C2          889
21  COc1cn(CC(=O)NCc2ccc3c(c2)OCO3)c(CSc2ccccc2)cc1=O          618
22  CCc1ccc(NC(=O)N2CCc3cn(CC)c4cccc(c34)C2)cc1         1060
23  CCOc1ccc(CCNC(=O)c2cc3sc(Cl)cc3n2CC)cc1OCC         1200
24  CCn1c(=O)sc2cc(S(=O)(=O)N3CCC(C(=O)Nc4cc(C)ccc4OC)CC3)ccc21          978
25      Cc1[nH]c(-c2ccccc2)cc1C(=O)NC1CCCCC1          898
26  CCn1cc(-c2ccc(OC)cc2)cc1C(=O)NCCN1CCN(C)CC1          623
27  O=S(=O)(c1ccc(-c2noc(-c3ccccc3Br)n2)cc1)N1CCCC1         1220
28  Cc1ccc2c(c1)N(C(=O)CSc1ccc(N3CCCC(C(=O)NC4CC4)C3)nn1)CCO2 (stereo not drawn)          687
29  Cc1cc(C)n(-c2nc3cc(Cl)ccc3nc2N2CCN(c3ccccn3)CC2)n1          754
30           O=C(Nc1ccccc1Cl)C1=Cc2ccccc2OC1          975
31         CC(C)CNC(=O)CN1CCN(Cc2ccccc2)C1=O          717
32               COCCCNCc1ccc(-c2ccccc2Cl)o1          672
33   CCCCN(C)CCCNC(=O)C1CCN(S(=O)(=O)CCC)CC1          968
